The origin of these recorded values is PubChem BioAssay AID2060902.

viability, T/C for assorted compounds
Tested on: 485368-065-R3-J5-PDC spheroids with HUVEC/MSC, viability;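 also: spheroids exposed to agents for seven days before readout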
Test: Anticancer human tumor 485368-065-R3-J5-PDC patient-derived pancreatic carcinoma cell line growth inhibition [RAS]
Conditions: second compound 0.1 µM; first compound 10 µM; hits give low values
Excerpt: RAS pathway inhibitors in Combinations in Complex Spheroids A high-throughput screen of multi-cell type tumor spheroids was designed to identify active combinations of RAS pathway inhibitors and targeted small molecules. Complex spheroids include a stromal component modeled by human endothelial cells (HUVEC) and fibroblasts modeled by human mesenchymal stem cells (MSCs). […] Compounds. […] If the clinical Cmax for an agent had not been determined, the highest concentration tested was 10 microM. […]

Req: Let me know recorded viability, T/C for CC(C)NCC(C(=O)N1CCN(c2ncnc3c2C(C)CC3O)CC1)c1ccc(Cl)cc1 (configuration not stated) + C=CC(=O)N1CCN(c2nc(OCC3CCCN3C)nc3c(F)c(-c4nc(N)cc(C)c4C(F)(F)F)c(Cl)cc23)C(C)C1 , thanks.
Resp: 57.8%

Req: Let me know recorded viability, T/C for NC1c2ccccc2OC12CCN(c1cnc3c(N4CCCc5ncccc54)n[nH]c3n1)CC2 (configuration not stated) + C=CC(=O)N1CCN(c2nc(OCC3CCCN3C)nc3c(F)c(-c4nc(N)cc(C)c4C(F)(F)F)c(Cl)cc23)C(C)C1 , thanks.
Resp: 74.6%

Req: Let me know recorded viability, T/C for C[C@@H](NC(=O)c1ncnc(N)c1Cl)c1ncc(C(=O)Nc2cc(C(F)(F)F)c(Cl)cn2)s1 + C#Cc1c(F)ccc2cc(O)cc(-c3ncc4c(N5CC6CCC(C5)N6)nc(OCC56CCCN5CC(F)C6)nc4c3F)c12 , thanks.
Resp: 57.9%

Req: Let me know recorded viability, T/C for CC(Nc1ccc2c(c1)OCCn1cc(N3C(=O)OCC3C(F)F)nc1-2)C(N)=O (configuration not stated) + C#Cc1c(F)ccc2cc(O)cc(-c3ncc4c(N5CC6CCC(C5)N6)nc(OCC56CCCN5CC(F)C6)nc4c3F)c12 , thanks.
Resp: 57.2%

Req: Let me know recorded viability, T/C for C[C@@H](NC(=O)c1ncnc(N)c1Cl)c1ncc(C(=O)Nc2cc(C(F)(F)F)c(Cl)cn2)s1 + C=CC(=O)N1CCN(c2nc(OCC3CCCN3C)nc3c(F)c(-c4nc(N)cc(C)c4C(F)(F)F)c(Cl)cc23)C(C)C1 , thanks.
Resp: 77%

Req: Let me know recorded viability, T/C for Cc1nc(N2CCC3(CC2)COC(C)C3N)c(CO)nc1Sc1ccnc(N)c1Cl (configuration not stated) + C#Cc1c(F)ccc2cc(O)cc(-c3ncc4c(N5CC6CCC(C5)N6)nc(OCC56CCCN5CC(F)C6)nc4c3F)c12 , thanks.
Resp: 51.8%

Req: Let me know recorded viability, T/C for CCC(CC)c1cc(NC2CCC(N)C2)n2nccc2n1 (configuration not stated) + C=CC(=O)N1CCN(c2nc(OCC3CCCN3C)nc3c(F)c(-c4nc(N)cc(C)c4C(F)(F)F)c(Cl)cc23)C(C)C1 , thanks.
Resp: 6.8%

Req: Let me know recorded viability, T/C for NC1c2ccccc2OC12CCN(c1cnc3c(N4CCCc5ncccc54)n[nH]c3n1)CC2 (configuration not stated) + C#Cc1c(F)ccc2cc(O)cc(-c3ncc4c(N5CC6CCC(C5)N6)nc(OCC56CCCN5CC(F)C6)nc4c3F)c12 , thanks.
Resp: 43.9%

New cases:
Req: Let me know recorded viability, T/C for Cc1nc(N2CCC3(CC2)COC(C)C3N)c(CO)nc1Sc1ccnc(N)c1Cl (configuration not stated) + C=CC(=O)N1CCN(c2nc(OCC3CCCN3C)nc3c(F)c(-c4nc(N)cc(C)c4C(F)(F)F)c(Cl)cc23)C(C)C1 , thanks.
Resp: 53.1%

Req: Let me know recorded viability, T/C for CC1(O)CCCC1n1c(=O)c(C(F)F)cc2cnc(NC3CCN(S(C)(=O)=O)CC3)nc21 (configuration not stated) + C#Cc1c(F)ccc2cc(O)cc(-c3ncc4c(N5CC6CCC(C5)N6)nc(OCC56CCCN5CC(F)C6)nc4c3F)c12 , thanks.
Resp: 10.9%

Req: Let me know recorded viability, T/C for CC(=O)OC12COC1CC(O)C1(C)C(=O)C(O)C3=C(C)C(OC(=O)C(O)C(NC(=O)OC(C)(C)C)c4ccccc4)CC(O)(C(OC(=O)c4ccccc4)C21)C3(C)C (configuration not stated) + C#Cc1c(F)ccc2cc(O)cc(-c3ncc4c(N5CC6CCC(C5)N6)nc(OCC56CCCN5CC(F)C6)nc4c3F)c12 , thanks.
Resp: 16.9%

Req: Let me know recorded viability, T/C for CCC(CC)c1cc(NC2CCC(N)C2)n2nccc2n1 (configuration not stated) + C#Cc1c(F)ccc2cc(O)cc(-c3ncc4c(N5CC6CCC(C5)N6)nc(OCC56CCCN5CC(F)C6)nc4c3F)c12 , thanks.
Resp: 7.06%
